Target: human CGT (Homo sapiens)
Experiment: Assay 1: CGT Enzymatic Assay (RapidFire/MS/MS, 0.01% Tween 80)
Type: biochemical
Conditions: Table 1, Compounds of Formula (I) and Formula (II); CGT enzymatic assay; read-out: IC50
In this section we review reported IC50 values for a set of compounds.

{"compound": "C#Cc1cccc(C2(O)C(C)N(c3ccc(Cl)cc3)C(=O)N2c2ccc(Cl)cc2)c1 (stereo not shown)", "assayedSystem": "human CGT (Homo sapiens)", "IC50": "< 1000 nM"}
{"compound": "C[C@@H]1N(c2ccc(C#N)cc2)C(=O)N(c2ccc(C#N)cc2)C1(O)c1cccc(OC(F)(F)F)c1 (stereo partly shown)", "assayedSystem": "human CGT (Homo sapiens)", "IC50": "< 1000 nM"}
{"compound": "O=C1N(c2ccc(Br)cc2)CC(O)(c2ccccc2)N1c1ccc(Cl)cc1 (stereo not shown)", "assayedSystem": "human CGT (Homo sapiens)", "IC50": "1000 to 10000 nM"}
{"compound": "CC1(C)N(c2ccc(Cl)cc2)C(=O)N(c2ccc(Cl)cc2)C1(O)c1cccc(C#N)c1 (stereo not shown)", "assayedSystem": "human CGT (Homo sapiens)", "IC50": "< 1000 nM"}

====

In this section we review reported IC50 values for a set of molecules.
Biological target: human CGT (Homo sapiens, UniProt Q16880)
Experiment: Assay 1: CGT Enzymatic Assay (RapidFire/MS/MS, 0.01% Tween 80)
Format: biochemical
Details: Table 1, Compounds of Formula (I) and Formula (II); CGT enzymatic assay; read-out: IC50
resultType: IC50

{"molecule": "C[C@]1(c2cccc(C(F)(F)F)c2)C(O)N(c2ccc(Cl)cc2)C(=O)N1c1ccc(Cl)cc1 (some centres unmarked) [Example 190-1]", "testResult": "> 50 µM"}
{"molecule": "C[C@H]1N(c2ccccc2)C(=O)N(c2ccccc2)C1(O)c1cccc(OC(F)(F)F)c1 (some centres unmarked) [Example 230-2]", "testResult": "1 to 10 µM"}
{"molecule": "CC(C)c1ccc(C2(O)C(=O)N(c3ccccc3)C(=O)N2c2ccccc2)cc1 (centres unmarked) [Compound 153]", "testResult": "> 50 µM"}
{"molecule": "C[C@H]1N(c2ccc(Br)cc2)C(=O)N(c2ccc(Br)cc2)C1(O)c1cccc(OC(F)(F)F)c1 (some centres unmarked) [Compound 66-2]", "testResult": "< 1 µM"}
{"molecule": "CN(C)c1cccc(C2(O)CN(c3ccc(Br)cc3)C(=O)N2c2ccc(Br)cc2)c1 (centres unmarked) [Compound 125]", "testResult": "> 50 µM"}
{"molecule": "CC1N(c2ccc(Cl)cc2)C(=O)N(c2ccc(Cl)cc2)C1(O)c1cccc(Cl)c1 (centres unmarked) [Compound 62]", "testResult": "< 1 µM"}
{"molecule": "O=C1N(c2ccc(Br)cc2)C(=O)C(O)(c2ccc3ccccc3c2)N1c1ccc(Br)cc1 (centres unmarked) [Compound 148]", "testResult": "50 to 100 µM"}
{"molecule": "N#Cc1cc(Cl)cc(C2(O)CN(c3ccc(Cl)cc3)C(=O)N2c2ccc(Cl)cc2)c1 (centres unmarked) [Compound 95]", "testResult": "1 to 10 µM"}

====

In this section we review reported IC50 values for a set of compounds.
Biological target: human CGT (Homo sapiens)
Sequence (Q16880 21-541): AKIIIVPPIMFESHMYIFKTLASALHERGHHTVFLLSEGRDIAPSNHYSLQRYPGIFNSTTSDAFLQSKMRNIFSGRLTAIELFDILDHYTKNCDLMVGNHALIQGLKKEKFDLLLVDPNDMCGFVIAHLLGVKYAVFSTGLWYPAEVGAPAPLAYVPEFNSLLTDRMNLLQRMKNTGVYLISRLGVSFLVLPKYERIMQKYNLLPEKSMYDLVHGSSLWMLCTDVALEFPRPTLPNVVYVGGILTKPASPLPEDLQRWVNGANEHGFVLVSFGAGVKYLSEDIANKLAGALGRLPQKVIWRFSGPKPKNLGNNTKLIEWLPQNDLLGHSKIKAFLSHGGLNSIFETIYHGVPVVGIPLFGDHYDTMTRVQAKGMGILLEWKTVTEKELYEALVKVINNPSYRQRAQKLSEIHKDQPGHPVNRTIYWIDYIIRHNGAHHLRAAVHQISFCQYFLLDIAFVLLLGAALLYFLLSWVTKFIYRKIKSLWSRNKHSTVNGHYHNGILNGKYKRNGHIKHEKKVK
Assay: CGT Enzyme Assay (Biological Example 2, RapidFire/MS/MS method with 0.01% Tween 80 added)
Assay type: biochemical
Details: enzymatic assay, CHO/CGT lysate
resultType: IC50

{"compound": "N#Cc1ccc(N2C(=O)N(c3ccc(Cl)cc3)C3(COC3)[C@H]2c2cccc(OC(F)(F)F)c2)cc1 [Example 47-1]", "resultType": "IC50", "testResult": "10 to 30 µM"}
{"compound": "C[C@H]1[C@H](c2cccc(OC(F)(F)F)c2)N(c2ccc(Cl)cc2)C(=O)N1c1ccc(Cl)cc1 [Example 4-1]", "resultType": "IC50", "testResult": "10 to 30 µM"}
{"compound": "C[C@H]1[C@H](c2ccccc2)N(c2ccc(Br)cc2)C(=O)N1c1ccc(Br)cc1 [Example 2-1]", "resultType": "IC50", "testResult": "30 to 100 µM"}
{"compound": "COC[C@@]1(C)[C@@H](c2cccc(C#N)c2)N(c2ccc(Cl)cc2)C(=O)N1c1ccc(Cl)cc1 [Example 38-1]", "resultType": "IC50", "testResult": "1 to 10 µM"}
{"compound": "CC[C@]1(C)[C@H](c2cccc(OC(F)(F)F)c2)N(c2ccc(C#N)cc2)C(=O)N1c1ccc(C#N)cc1 [Example 51-2]", "resultType": "IC50", "testResult": "< 1 µM"}
{"compound": "CC1(C)[C@@H](c2cccc(OC(F)(F)F)c2)N(c2ccc(C(F)(F)F)cc2)C(=O)N1c1ccc(C(F)(F)F)cc1 [Example 20-1]", "resultType": "IC50", "testResult": "< 1 µM"}
{"compound": "CC1(C)[C@H](c2cccc(C#N)c2)N(c2ccc(Cl)cc2)C(=O)N1c1ccc(Cl)cc1 [Example 10-2]", "resultType": "IC50", "testResult": "< 1 µM"}
{"compound": "CCC[C@]1(C)[C@H](c2cccc(OC(F)(F)F)c2)N(c2ccc(Cl)cc2)C(=O)N1c1ccc(Cl)cc1 [Example 22-3]", "resultType": "IC50", "testResult": "< 1 µM"}
{"compound": "O=C1N(c2ccc(Cl)cc2)[C@H]2CCC[C@@]2(c2cccc(OC(F)(F)F)c2)N1c1ccc(Cl)cc1 [Example 12-1]", "resultType": "IC50", "testResult": "1 to 10 µM"}
{"compound": "Cc1ccc(N2C(=O)N(c3ccc(C#N)cc3)[C@H](c3cccc(C#N)c3)C2(C)C)cc1 [Example 48-1]", "resultType": "IC50", "testResult": "10 to 30 µM"}
{"compound": "CC1(C)[C@@H](c2cccc(C#N)c2)N(c2ccc(Cl)cc2)C(=O)N1c1ccc(Cl)cc1 [Example 10-1]", "resultType": "IC50", "testResult": "10 to 30 µM"}
{"compound": "CC[C@]1(C)[C@H](c2cccc(C#N)c2)N(c2ccc(Cl)cc2)C(=O)N1c1ccc(Cl)cc1 [Example 34-4]", "resultType": "IC50", "testResult": "10 to 30 µM"}
{"compound": "C[C@]1(C(F)(F)F)[C@@H](c2cccc(OC(F)(F)F)c2)N(c2ccc(Br)cc2)C(=O)N1c1ccc(C#N)cc1 [Example 44-2]", "resultType": "IC50", "testResult": "< 1 µM"}
{"compound": "Cc1ccc(N2C(=O)N(c3ccc(C#N)cc3)[C@@H](c3cccc(OC(F)(F)F)c3)C2(C)C)cc1 [Example 50-2]", "resultType": "IC50", "testResult": "10 to 30 µM"}
{"compound": "Cc1ccc(N2C(=O)N(c3ccc(C#N)cc3)C3(COC3)[C@@H]2c2cccc(OC(F)(F)F)c2)cc1 [Example 43-2]", "resultType": "IC50", "testResult": "< 1 µM"}

====

In this section we review reported pIC50 values for a set of molecules.
Biological target: human CGT (Homo sapiens, UniProt Q16880)
Assay: Assay 1: CGT Enzymatic Assay (RapidFire/MS/MS, 0.01% Tween 80)
Assay type: biochemical
Conditions: Table 1, Compounds of Formula (I) and Formula (II); CGT enzymatic assay; read-out: IC50
pIC50: −log10 of the molar value.
resultType: pIC50

{"molecule": "COc1cccc(C2(C)C(O)N(c3ccc(Br)cc3)C(=O)N2c2ccc(Br)cc2)c1 (stereo not drawn)", "assayedSystem": "human CGT (Homo sapiens, UniProt Q16880)", "testResult": "5.00 to 6.00"}
{"molecule": "Cc1cccc(C2(O)C(C)N(c3ccc(Cl)cc3)C(=O)N2c2ccc(Cl)cc2)c1 (stereo not drawn)", "assayedSystem": "human CGT (Homo sapiens, UniProt Q16880)", "testResult": "> 6.00"}
{"molecule": "O=C1N(c2ccc(Cl)cc2)CC(O)(c2cccc(Cl)c2)N1c1ccc(Cl)cc1 (stereo not drawn)", "assayedSystem": "human CGT (Homo sapiens, UniProt Q16880)", "testResult": "> 6.00"}
{"molecule": "O=C1N(c2ccc(Br)cc2)C(=O)C(O)(c2ccc(OC3CCC3)cc2)N1c1ccc(Br)cc1 (stereo not drawn)", "assayedSystem": "human CGT (Homo sapiens, UniProt Q16880)", "testResult": "< 4.30"}
{"molecule": "CCC[C@H]1N(c2ccc(Br)cc2)C(=O)N(c2ccc(Br)cc2)C1(O)c1cccc(CC)c1 (stereo partly drawn)", "assayedSystem": "human CGT (Homo sapiens, UniProt Q16880)", "testResult": "> 6.00"}
{"molecule": "Cc1ccc(N2C(=O)N(c3ccc(C)cc3)C(O)(c3cccc(C#N)c3)C2C)cc1 (stereo not drawn)", "assayedSystem": "human CGT (Homo sapiens, UniProt Q16880)", "testResult": "> 6.00"}
{"molecule": "O=C1N(c2ccc(Br)cc2)C(=O)C(O)(c2ccc(-c3ccc(F)cc3)cc2)N1c1ccc(Br)cc1 (stereo not drawn)", "assayedSystem": "human CGT (Homo sapiens, UniProt Q16880)", "testResult": "< 4.30"}
{"molecule": "CCC[C@H]1N(c2ccc(Br)cc2)C(=O)N(c2ccc(Br)cc2)C1(O)c1cccc(OC(F)(F)F)c1 (stereo partly drawn)", "assayedSystem": "human CGT (Homo sapiens, UniProt Q16880)", "testResult": "> 6.00"}
{"molecule": "CCc1cccc(C2(O)[C@@H](C)N(c3ccc(Cl)cc3)C(=O)N2c2ccc(Cl)cc2)c1 (stereo partly drawn)", "assayedSystem": "human CGT (Homo sapiens, UniProt Q16880)", "testResult": "> 6.00"}
{"molecule": "CCCc1c(-c2cccc(CC)c2)n(-c2ccc(Cl)cc2)c(=O)n1-c1ccc(Cl)cc1", "assayedSystem": "human CGT (Homo sapiens, UniProt Q16880)", "testResult": "5.00 to 6.00"}
{"molecule": "COc1ccc(N2C(=O)N(c3ccc(OC)cc3)C(O)(c3ccccc3)C2=O)cc1 (stereo not drawn)", "assayedSystem": "human CGT (Homo sapiens, UniProt Q16880)", "testResult": "< 4.30"}
{"molecule": "CC[C@@H]1N(c2ccc(Cl)cc2)C(=O)N(c2ccc(Cl)cc2)C1(O)c1cccc(C(F)(F)F)c1 (stereo partly drawn)", "assayedSystem": "human CGT (Homo sapiens, UniProt Q16880)", "testResult": "> 6.00"}
{"molecule": "N#Cc1cccc(C2(O)N(c3ccc(Cl)cc3)C(=O)N(c3ccc(Cl)cc3)[C@]23CCOC3)c1 (stereo partly drawn)", "assayedSystem": "human CGT (Homo sapiens, UniProt Q16880)", "testResult": "> 6.00"}
{"molecule": "O=C1N(c2ccc(Br)cc2)C(=O)C(O)(c2ccc(OC3CC3)cc2)N1c1ccc(Br)cc1 (stereo not drawn)", "assayedSystem": "human CGT (Homo sapiens, UniProt Q16880)", "testResult": "< 4.30"}
{"molecule": "C[C@H]1N(c2ccc(Cl)cc2)C(=O)N(c2ccc(Cl)cc2)C1(O)c1cccc(C#N)c1 (single isomer, unassigned)", "assayedSystem": "human CGT (Homo sapiens, UniProt Q16880)", "testResult": "> 6.00"}
